The following molecules are listed with their measured IC50 values.
# Measurement Target: Mer (Homo sapiens (Human))
# Experimental Protocol: Human Mer kinase assay (33P radiometric, KinaseProfiler)
# Type: biochemical
# Recorded Conditions: 10 μM ATP
# Sequence (Q12866 557-882): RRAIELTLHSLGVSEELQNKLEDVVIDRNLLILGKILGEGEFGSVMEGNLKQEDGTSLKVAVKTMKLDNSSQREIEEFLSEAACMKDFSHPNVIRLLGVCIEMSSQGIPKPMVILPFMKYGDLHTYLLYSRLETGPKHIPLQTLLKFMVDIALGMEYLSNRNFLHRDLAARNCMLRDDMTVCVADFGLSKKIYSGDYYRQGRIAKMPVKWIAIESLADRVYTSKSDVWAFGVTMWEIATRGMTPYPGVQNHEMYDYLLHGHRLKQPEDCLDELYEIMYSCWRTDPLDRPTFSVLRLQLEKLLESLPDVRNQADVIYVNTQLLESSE
Metric: IC50

{"Structure Notation": "CNC(=O)c1cc2c(Oc3ccc(NC(=O)C4(C(=O)Nc5ccc(F)cc5)CC4)cn3)ccnc2cc1OC", "Measurement Target": "Mer (Homo sapiens (Human))", "Metric": "IC50", "Reported Measurement": "10 to 100 nM"}
{"Structure Notation": "COc1cc2nccc(Oc3ncc(NC(=O)C4(C(=O)Nc5ccc(F)cc5)CC4)cc3Cl)c2cc1C(N)=O", "Measurement Target": "Mer (Homo sapiens (Human))", "Metric": "IC50", "Reported Measurement": "≤ 10 nM"}
{"Structure Notation": "COc1cc2nccc(Oc3ccc(NC(=O)C4(C(=O)Nc5ccc(F)cc5)CC4)cn3)c2cc1C(N)=O", "Measurement Target": "Mer (Homo sapiens (Human))", "Metric": "IC50", "Reported Measurement": "≤ 10 nM"}
{"Structure Notation": "COc1cc2nccc(Oc3ncc(NC(=O)C4(C(=O)Nc5ccc(F)cc5)CC4)cc3Cl)c2nc1OC", "Measurement Target": "Mer (Homo sapiens (Human))", "Metric": "IC50", "Reported Measurement": "10 to 100 nM"}
{"Structure Notation": "COC(=O)c1cc2c(Oc3ncc(NC(=O)C4(C(=O)Nc5ccc(F)cc5)CC4)cc3Cl)ccnc2cc1OC", "Measurement Target": "Mer (Homo sapiens (Human))", "Metric": "IC50", "Reported Measurement": "≤ 10 nM"}
{"Structure Notation": "COc1cc2nccc(Oc3ncc(NC(=O)C4(C(=O)Nc5ccc(F)cc5)CC4)cc3F)c2nc1OC", "Measurement Target": "Mer (Homo sapiens (Human))", "Metric": "IC50", "Reported Measurement": "≤ 10 nM"}
{"Structure Notation": "COC(=O)c1cc2c(Oc3ccc(NC(=O)C4(C(=O)Nc5ccc(F)cc5)CC4)cn3)ccnc2cc1OC", "Measurement Target": "Mer (Homo sapiens (Human))", "Metric": "IC50", "Reported Measurement": "≤ 10 nM"}

====

# Measurement Target: Met (Homo sapiens (Human), UniProt P08581)
# Experimental Protocol: Met autophosphorylation ELISA in PC-3 cells
# Format: cell-based
# Recorded Conditions: cellular, HGF-stimulated, phospho-Met ELISA, read-out: c-Met IC50
# Sequence (P08581 25-1390): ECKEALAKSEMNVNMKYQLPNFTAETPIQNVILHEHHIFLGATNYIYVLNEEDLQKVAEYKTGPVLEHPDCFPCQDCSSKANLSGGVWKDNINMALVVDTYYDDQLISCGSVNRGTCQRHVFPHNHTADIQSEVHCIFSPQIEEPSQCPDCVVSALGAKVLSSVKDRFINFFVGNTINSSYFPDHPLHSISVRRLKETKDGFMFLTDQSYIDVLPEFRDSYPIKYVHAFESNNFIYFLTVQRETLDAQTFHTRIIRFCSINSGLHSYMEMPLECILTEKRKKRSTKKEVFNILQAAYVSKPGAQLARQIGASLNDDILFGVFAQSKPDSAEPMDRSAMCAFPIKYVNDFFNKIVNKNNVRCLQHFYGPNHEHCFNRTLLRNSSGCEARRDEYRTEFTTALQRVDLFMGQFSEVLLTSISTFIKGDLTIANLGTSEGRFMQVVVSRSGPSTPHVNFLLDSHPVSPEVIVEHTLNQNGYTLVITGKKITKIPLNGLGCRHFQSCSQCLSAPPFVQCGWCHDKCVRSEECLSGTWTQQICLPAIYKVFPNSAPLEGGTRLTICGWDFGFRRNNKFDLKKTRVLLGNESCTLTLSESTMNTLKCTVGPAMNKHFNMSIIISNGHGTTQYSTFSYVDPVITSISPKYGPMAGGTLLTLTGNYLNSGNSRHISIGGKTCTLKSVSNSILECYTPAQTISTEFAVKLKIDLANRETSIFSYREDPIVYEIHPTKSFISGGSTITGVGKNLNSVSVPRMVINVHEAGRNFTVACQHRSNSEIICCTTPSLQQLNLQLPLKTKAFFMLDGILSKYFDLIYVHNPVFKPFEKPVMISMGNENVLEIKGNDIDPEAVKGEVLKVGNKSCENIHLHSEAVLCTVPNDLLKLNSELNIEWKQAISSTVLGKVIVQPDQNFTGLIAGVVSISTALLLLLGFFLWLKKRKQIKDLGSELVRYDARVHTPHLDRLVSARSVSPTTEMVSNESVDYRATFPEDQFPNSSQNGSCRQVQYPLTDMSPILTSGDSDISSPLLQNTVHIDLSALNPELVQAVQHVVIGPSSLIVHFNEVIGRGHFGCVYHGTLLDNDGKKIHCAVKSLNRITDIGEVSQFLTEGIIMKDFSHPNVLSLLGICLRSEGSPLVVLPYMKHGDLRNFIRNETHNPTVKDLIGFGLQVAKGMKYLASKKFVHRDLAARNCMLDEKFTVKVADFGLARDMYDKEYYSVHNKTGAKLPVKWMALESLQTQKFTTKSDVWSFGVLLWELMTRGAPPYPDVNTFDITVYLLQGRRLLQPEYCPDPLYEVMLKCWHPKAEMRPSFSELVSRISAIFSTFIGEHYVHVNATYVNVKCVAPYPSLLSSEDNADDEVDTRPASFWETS
Metric: IC50

{"Structure Notation": "NC(=O)c1cc2c(Oc3ncc(NC(=O)C4(C(=O)Nc5ccc(F)cc5)CC4)cc3Cl)ccnc2cc1OCCO", "Measurement Target": "Met (Homo sapiens (Human), UniProt P08581)", "Reported Measurement": "10 to 100 nM"}
{"Structure Notation": "COc1cc2nccc(Oc3ncc(NC(=O)C4(C(=O)Nc5ccc(F)cc5)CC4)cc3F)c2cc1-c1nnco1", "Measurement Target": "Met (Homo sapiens (Human), UniProt P08581)", "Reported Measurement": "10 to 100 nM"}
{"Structure Notation": "COCCOc1cc2nccc(Oc3ncc(NC(=O)C4(C(=O)Nc5ccc(F)cc5)CC4)cc3Cl)c2nc1OC", "Measurement Target": "Met (Homo sapiens (Human), UniProt P08581)", "Reported Measurement": "10 to 100 nM"}
{"Structure Notation": "CCNC(=O)c1cc2c(Oc3ncc(NC(=O)C4(C(=O)Nc5ccc(F)cc5)CC4)cc3F)ccnc2cc1OC", "Measurement Target": "Met (Homo sapiens (Human), UniProt P08581)", "Reported Measurement": "10 to 100 nM"}
{"Structure Notation": "COCc1noc(-c2cc3c(Oc4ncc(NC(=O)C5(C(=O)Nc6ccc(F)cc6)CC5)cc4F)ccnc3cc2OC)n1", "Measurement Target": "Met (Homo sapiens (Human), UniProt P08581)", "Reported Measurement": "> 300 nM"}

====

Reported pIC50 is given for each of the following compounds.
# Measurement Target: AXL (Homo sapiens (Human))
# Sequence (P30530 26-894): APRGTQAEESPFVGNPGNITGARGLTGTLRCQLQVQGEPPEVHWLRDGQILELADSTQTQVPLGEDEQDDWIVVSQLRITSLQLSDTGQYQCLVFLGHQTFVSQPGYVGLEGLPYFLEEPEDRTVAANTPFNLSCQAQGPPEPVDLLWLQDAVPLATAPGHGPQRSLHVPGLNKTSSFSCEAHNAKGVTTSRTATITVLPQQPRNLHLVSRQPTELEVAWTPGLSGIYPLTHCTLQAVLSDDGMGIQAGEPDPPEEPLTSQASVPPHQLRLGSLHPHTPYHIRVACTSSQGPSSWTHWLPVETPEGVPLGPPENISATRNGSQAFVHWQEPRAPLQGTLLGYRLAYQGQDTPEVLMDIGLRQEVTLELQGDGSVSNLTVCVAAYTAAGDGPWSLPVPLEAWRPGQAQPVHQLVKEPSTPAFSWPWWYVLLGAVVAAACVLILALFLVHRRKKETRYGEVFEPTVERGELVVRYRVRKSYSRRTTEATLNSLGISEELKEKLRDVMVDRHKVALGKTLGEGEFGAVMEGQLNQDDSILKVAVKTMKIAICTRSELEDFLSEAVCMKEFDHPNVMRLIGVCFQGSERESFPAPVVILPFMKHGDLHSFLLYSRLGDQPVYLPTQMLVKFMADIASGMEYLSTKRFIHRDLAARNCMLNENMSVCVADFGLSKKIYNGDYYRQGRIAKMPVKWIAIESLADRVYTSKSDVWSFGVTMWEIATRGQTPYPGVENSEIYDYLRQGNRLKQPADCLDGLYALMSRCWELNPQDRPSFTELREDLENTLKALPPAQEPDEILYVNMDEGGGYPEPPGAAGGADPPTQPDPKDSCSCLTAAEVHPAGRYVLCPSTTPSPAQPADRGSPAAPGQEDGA
# Experimental Protocol: AXL autophosphorylation ELISA in A-172 cells
# Recorded Conditions: cellular, Gas6-stimulated, phospho-AXL ELISA
pIC50: −log10 of the molar value.

{"Structure Notation": "COCc1noc(-c2cc3c(Oc4ncc(NC(=O)C5(C(=O)Nc6ccc(F)cc6)CC5)cc4F)ccnc3cc2OC)n1", "pIC50": "< 6.52"}
{"Structure Notation": "CNC(=O)c1cc2c(Oc3ncc(NC(=O)C4(C(=O)Nc5ccc(F)cc5)CC4)cc3Cl)ccnc2cc1OCCO", "pIC50": "7.00 to 8.00"}
{"Structure Notation": "COc1cc2nccc(Oc3ccc(NC(=O)C4(C(=O)Nc5ccc(F)cc5)CC4)cn3)c2cc1-c1cn[nH]c1", "pIC50": "7.00 to 8.00"}
{"Structure Notation": "COc1cc2nccc(Oc3ncc(NC(=O)C4(C(=O)Nc5ccc(F)cc5)CC4)cc3C)c2nc1OC", "pIC50": "< 6.52"}

====

# key: entry, value: IC50
# Measurement Target: Met (Homo sapiens (Human))
# Experimental Protocol: Human Met kinase assay (33P radiometric, KinaseProfiler)
# Assay type: biochemical
# Recorded Conditions: 10 μM ATP, read-out: c-Met IC50

{"Structure Notation": "COC(=O)c1cc2c(Oc3ccc(NC(=O)C4(C(=O)Nc5ccc(F)cc5)CC4)cn3)ccnc2cc1OC", "IC50": "≤ 10 nM"}
{"Structure Notation": "COc1cc2nccc(Oc3ncc(NC(=O)C4(C(=O)Nc5ccc(F)cc5)CC4)cc3Cl)c2nc1OC", "IC50": "10 to 100 nM"}
{"Structure Notation": "COc1cc2nccc(Oc3ccc(NC(=O)C4(C(=O)Nc5ccc(F)cc5)CC4)cn3)c2cc1C(N)=O", "IC50": "≤ 10 nM"}
{"Structure Notation": "COc1cc2nccc(Oc3ccc(NC(=O)C4(C(=O)Nc5ccc(F)cc5)CC4)cn3)c2nc1OC", "IC50": "10 to 100 nM"}
{"Structure Notation": "CNC(=O)c1cc2c(Oc3ccc(NC(=O)C4(C(=O)Nc5ccc(F)cc5)CC4)cn3)ccnc2cc1OC", "IC50": "10 to 100 nM"}
{"Structure Notation": "COC(=O)c1cc2c(Oc3ncc(NC(=O)C4(C(=O)Nc5ccc(F)cc5)CC4)cc3Cl)ccnc2cc1OC", "IC50": "≤ 10 nM"}
{"Structure Notation": "COc1cc2nccc(Oc3ncc(NC(=O)C4(C(=O)Nc5ccc(F)cc5)CC4)cc3Cl)c2cc1C(N)=O", "IC50": "≤ 10 nM"}
{"Structure Notation": "COc1cc2nccc(Oc3ncc(NC(=O)C4(C(=O)Nc5ccc(F)cc5)CC4)cc3F)c2nc1OC", "IC50": "≤ 10 nM"}
{"Structure Notation": "COc1cc2nccc(Oc3ccc(NC(=O)C4(C(=O)Nc5ccc(F)cc5)CC4)cn3)c2cc1C(=O)O", "IC50": "100 to 1000 nM"}
{"Structure Notation": "COc1cc2nccc(Oc3ccc(NC(=O)C4(C(=O)Nc5ccc(F)cc5)CC4)cn3)c2cc1-c1cn[nH]c1", "IC50": "≤ 10 nM"}
{"Structure Notation": "COc1cc2nccc(Oc3ncc(NC(=O)C4(C(=O)Nc5ccc(F)cc5)CC4)cc3Cl)c2cc1C(=O)O", "IC50": "10 to 100 nM"}

====

# Measurement Target: KDR (Homo sapiens (Human))
# Sequence (P35968 20-1356): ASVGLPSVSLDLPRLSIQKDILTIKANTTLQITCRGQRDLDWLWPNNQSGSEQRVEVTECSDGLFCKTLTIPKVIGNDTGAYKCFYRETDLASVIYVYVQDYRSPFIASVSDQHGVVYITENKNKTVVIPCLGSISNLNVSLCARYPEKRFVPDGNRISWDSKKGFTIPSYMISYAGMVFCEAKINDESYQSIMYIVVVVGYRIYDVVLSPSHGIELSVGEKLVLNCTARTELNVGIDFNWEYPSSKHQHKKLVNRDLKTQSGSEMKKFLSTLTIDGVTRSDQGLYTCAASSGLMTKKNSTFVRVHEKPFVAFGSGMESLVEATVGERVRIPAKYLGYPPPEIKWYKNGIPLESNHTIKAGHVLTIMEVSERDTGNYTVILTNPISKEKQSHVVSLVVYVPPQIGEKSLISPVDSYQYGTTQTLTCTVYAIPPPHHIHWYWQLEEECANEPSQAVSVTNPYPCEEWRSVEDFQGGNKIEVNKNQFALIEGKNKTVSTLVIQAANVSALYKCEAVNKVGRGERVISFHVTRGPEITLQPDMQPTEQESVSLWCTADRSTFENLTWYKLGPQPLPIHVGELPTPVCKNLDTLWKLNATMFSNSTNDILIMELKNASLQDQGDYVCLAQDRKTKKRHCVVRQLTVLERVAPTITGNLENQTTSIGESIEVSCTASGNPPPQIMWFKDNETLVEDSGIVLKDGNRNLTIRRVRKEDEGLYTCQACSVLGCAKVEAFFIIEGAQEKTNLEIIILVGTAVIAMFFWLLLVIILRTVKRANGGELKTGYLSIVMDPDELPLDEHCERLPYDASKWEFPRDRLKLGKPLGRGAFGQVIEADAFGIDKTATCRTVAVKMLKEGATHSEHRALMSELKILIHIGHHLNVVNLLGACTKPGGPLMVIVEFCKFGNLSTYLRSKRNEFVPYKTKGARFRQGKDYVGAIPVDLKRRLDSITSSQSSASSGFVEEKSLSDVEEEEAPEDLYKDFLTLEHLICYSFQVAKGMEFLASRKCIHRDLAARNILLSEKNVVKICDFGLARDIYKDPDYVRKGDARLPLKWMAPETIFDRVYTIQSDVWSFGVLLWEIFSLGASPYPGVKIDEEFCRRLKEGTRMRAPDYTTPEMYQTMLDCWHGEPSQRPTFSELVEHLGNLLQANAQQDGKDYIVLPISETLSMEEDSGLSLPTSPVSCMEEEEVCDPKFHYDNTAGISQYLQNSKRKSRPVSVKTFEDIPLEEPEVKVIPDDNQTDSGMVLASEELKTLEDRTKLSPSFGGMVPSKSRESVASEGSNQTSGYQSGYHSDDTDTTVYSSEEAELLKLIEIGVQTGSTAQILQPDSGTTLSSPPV
# Experimental Protocol: KDR autophosphorylation ELISA in HUVEC cells
# Recorded Conditions: cellular, VEGF165-stimulated, phospho-KDR ELISA
pIC50: −log10 of the molar value.

{"Structure Notation": "COc1cc2nccc(Oc3ncc(NC(=O)C4(C(=O)Nc5ccc(F)cc5)CC4)cc3F)c2cc1-c1ncc[nH]1", "pIC50": "< 6.52"}
{"Structure Notation": "COc1cc2nccc(Oc3ncc(NC(=O)C4(C(=O)Nc5ccc(F)cc5)CC4)cc3C)c2nc1OC", "pIC50": "< 6.52"}
{"Structure Notation": "COc1cc2nccc(Oc3ccc(NC(=O)C4(C(=O)Nc5ccc(F)cc5)CC4)cn3)c2cc1C(N)=O", "pIC50": "7.00 to 8.00"}
{"Structure Notation": "COc1cc2nccc(Oc3ccc(NC(=O)C4(C(=O)Nc5ccc(F)cc5)CC4)c(C)n3)c2nc1OC", "pIC50": "< 6.52"}

====

Entries and their measured IC50 follow.
# Measurement Target: Mer (Homo sapiens (Human))
# Experimental Protocol: Mer autophosphorylation ELISA in transient transfected 293A cells
# Assay type: cell-based
# Recorded Conditions: cellular, MERTK-transfected 293A cells, phospho-Mer ELISA
# Sequence (Q12866 21-999): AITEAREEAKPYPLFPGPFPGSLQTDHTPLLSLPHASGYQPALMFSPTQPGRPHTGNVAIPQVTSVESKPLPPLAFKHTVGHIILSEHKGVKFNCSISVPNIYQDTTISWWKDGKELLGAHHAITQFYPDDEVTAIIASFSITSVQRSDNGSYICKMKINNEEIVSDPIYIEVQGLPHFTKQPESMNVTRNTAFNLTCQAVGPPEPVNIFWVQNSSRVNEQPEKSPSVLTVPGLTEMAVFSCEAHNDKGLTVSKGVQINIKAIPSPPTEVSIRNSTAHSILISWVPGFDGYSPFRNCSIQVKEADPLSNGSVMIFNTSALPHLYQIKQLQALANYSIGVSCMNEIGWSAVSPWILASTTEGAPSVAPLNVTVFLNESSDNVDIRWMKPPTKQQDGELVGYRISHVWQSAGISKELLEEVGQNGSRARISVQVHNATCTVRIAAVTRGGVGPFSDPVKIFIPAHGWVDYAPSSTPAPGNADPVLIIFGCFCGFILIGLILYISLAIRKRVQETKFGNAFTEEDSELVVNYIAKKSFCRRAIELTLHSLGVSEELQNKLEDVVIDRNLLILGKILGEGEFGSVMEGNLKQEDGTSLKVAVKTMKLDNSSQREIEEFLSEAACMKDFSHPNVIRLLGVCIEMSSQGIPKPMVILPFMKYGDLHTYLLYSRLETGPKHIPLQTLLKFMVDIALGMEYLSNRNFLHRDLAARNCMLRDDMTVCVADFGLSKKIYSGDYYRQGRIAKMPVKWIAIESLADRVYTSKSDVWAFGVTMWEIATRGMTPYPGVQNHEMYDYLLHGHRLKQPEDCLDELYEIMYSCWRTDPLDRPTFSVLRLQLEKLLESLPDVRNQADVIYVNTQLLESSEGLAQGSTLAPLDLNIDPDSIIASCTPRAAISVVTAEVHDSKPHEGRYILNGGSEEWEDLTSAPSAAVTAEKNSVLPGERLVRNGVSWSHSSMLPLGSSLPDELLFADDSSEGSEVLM

{"Molecule": "COc1cc2nccc(Oc3ncc(NC(=O)C4(C(=O)Nc5ccc(F)cc5)CC4)cc3F)c2cc1C(N)=O [Compound 21]", "Measurement Target": "Mer (Homo sapiens (Human))", "IC50": "10 to 100 nM"}
{"Molecule": "COc1cc2nccc(Oc3nc(F)c(NC(=O)C4(C(=O)Nc5ccc(F)cc5)CC4)cc3F)c2nc1OC [Compound 96]", "Measurement Target": "Mer (Homo sapiens (Human))", "IC50": "10 to 100 nM"}
{"Molecule": "COc1cc2nccc(Oc3ccc(NC(=O)C4(C(=O)Nc5ccc(F)cc5)CC4)c(C)n3)c2nc1OC [Compound 87]", "Measurement Target": "Mer (Homo sapiens (Human))", "IC50": "> 300 nM"}
{"Molecule": "COc1cc2nccc(Oc3ncc(NC(=O)C4(C(=O)Nc5ccc(F)cc5)CC4)cc3Cl)c2cc1-c1nnco1 [Compound 68]", "Measurement Target": "Mer (Homo sapiens (Human))", "IC50": "10 to 100 nM"}
{"Molecule": "CNC(=O)c1cc2c(Oc3ncc(NC(=O)C4(C(=O)Nc5ccc(F)cc5)CC4)cc3Cl)ccnc2cc1OCCO [Compound 37]", "Measurement Target": "Mer (Homo sapiens (Human))", "IC50": "100 to 300 nM"}
{"Molecule": "NC(=O)c1cc2c(Oc3ncc(NC(=O)C4(C(=O)Nc5ccc(F)cc5)CC4)cc3Cl)ccnc2cc1OCCO [Compound 38]", "Measurement Target": "Mer (Homo sapiens (Human))", "IC50": "10 to 100 nM"}
{"Molecule": "COc1cc2nccc(Oc3ccc(NC(=O)C4(C(=O)Nc5ccc(F)cc5)CC4)cn3)c2cc1-c1cn[nH]c1 [Compound 60]", "Measurement Target": "Mer (Homo sapiens (Human))", "IC50": "10 to 100 nM"}
